Source of measurements: patent US8796283B2

- Experimental Target: human α7 nAChR (Homo sapiens)
- Construct: expressed in transfected cells; host or cells: GH4C1 (rat pituitary) cell line, stably transfected
- Sequence (P36544 23-502): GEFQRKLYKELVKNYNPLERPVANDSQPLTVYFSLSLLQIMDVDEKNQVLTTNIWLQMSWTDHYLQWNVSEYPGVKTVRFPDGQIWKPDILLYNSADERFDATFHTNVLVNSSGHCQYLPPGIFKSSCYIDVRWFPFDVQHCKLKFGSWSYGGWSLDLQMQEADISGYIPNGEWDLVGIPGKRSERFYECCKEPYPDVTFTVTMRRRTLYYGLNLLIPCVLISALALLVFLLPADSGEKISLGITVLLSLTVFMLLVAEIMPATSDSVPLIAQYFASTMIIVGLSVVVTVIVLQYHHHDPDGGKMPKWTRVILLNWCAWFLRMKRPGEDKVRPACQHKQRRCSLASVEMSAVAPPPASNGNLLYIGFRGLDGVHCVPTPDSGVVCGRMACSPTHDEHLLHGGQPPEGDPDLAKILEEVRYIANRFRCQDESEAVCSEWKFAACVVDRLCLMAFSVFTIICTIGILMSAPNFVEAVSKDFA
- Experimental Details: cell-based calcium flux assay (FLIPR) for PAM activity, nicotine-evoked response
- Settings: GH4C1 cell line stably transfected with human α7 nAChR; potentiation of nicotine calcium flux; read-out: pEC50 Mean (converted)
Structures can show the parent of a compound that is named as a salt.
Metric Name: EC50

Some solved entries appear below for comparison.
Give EC50 for the following compound: "CCc1cc(NCc2ccc3[nH]c(C(F)(F)F)cc3c2)ncn1" ≤ 10 µM

Consider the compound "FC(F)(F)c1cc2cc(CNc3cc(Cl)ncn3)cnc2[nH]1" and give its recorded EC50. ≤ 3.16 µM

For the compound "Cc1c(NCc2cnc3[nH]c(C(F)(F)F)cc3c2)ncnc1C(F)F" , give its measured EC50 value. ≤ 3.16 µM

Given "CC(=O)c1cc(NCc2cnc3[nH]c(C(F)(F)F)cc3c2)ncn1" , respond with its EC50. ≤ 10 µM

Fill in reported EC50 for this entry: "N#CCc1cc(NCc2cnc3[nH]c(C(F)(F)F)cc3c2)ncn1" ≤ 10 µM

Report EC50, nothing else, for this compound: Cl.[2H]C([2H])(Nc1cc(C2CC2)ncn1)c1cnc2[nH]c(C(F)(F)F)cc2c1 [14-d HCl] ≤ 3.16 µM

---
Give the reported EC50 for this compound. "CC(C)(C)c1cc(NCc2cnc3[nH]c(C(F)(F)F)cc3c2)ncn1" ≤ 3.16 µM

Note EC50 for the compound shown: "CCc1cc(NCc2cnc3[nH]c(C(F)(F)F)cc3c2)ncn1" ≤ 10 µM

Please list EC50 recorded for the compound "CCc1ncnc(NCc2cnc3[nH]c(C(F)(F)F)cc3c2)c1C" ≤ 10 µM

Supply EC50 value. Item: "FC(F)(F)c1cc(NCc2cnc3[nH]c(C(F)(F)F)cc3c2)ncn1" ≤ 1 µM

Indicate the recorded EC50 value for this compound: Cc1c(NCc2cnc3[nH]c(C(F)(F)F)cc3c2)ncnc1C(F)(F)F [22 HCl] ≤ 1 µM

Using known records, supply EC50 for "CC(C)c1cc(NCc2cnc3[nH]c(C(F)(F)F)cc3c2)ncn1" ≤ 10 µM

Answer with reported EC50 of "[2H]C([2H])(Nc1cc(C(C)(F)F)ncn1)c1cnc2[nH]c(C(F)(F)F)cc2c1" ≤ 3.16 µM

Entry "CC(F)(F)c1cc(NCc2cnc3[nH]c(C(F)(F)F)cc3c2)ncn1" needs its EC50 filled in; supply it. ≤ 1 µM

Find the measured EC50 of Cc1c(NCc2cnc3[nH]c(C(F)(F)F)cc3c2)ncnc1C(C)(F)F [21 HCl] and report it. ≤ 1 µM

# return recorded EC50 for entry CC(F)c1cc(NCc2cnc3[nH]c(C(F)(F)F)cc3c2)ncn1 (stereo not shown) [9 HCl] ≤ 3.16 µM

Give the reported value of EC50 for this record: Cc1c(NCc2cnc3[nH]c(C(F)(F)F)cc3c2)ncnc1C1CC1 [25 HCl] ≤ 3.16 µM

Assign EC50 to the following record: FCc1cc(NCc2cnc3[nH]c(C(F)(F)F)cc3c2)ncn1 [11 HCl] ≤ 10 µM

Give EC50 for the following compound: FCc1cc(NCc2cnc3[nH]c(C(F)(F)F)cc3c2)ncn1 [Example 11] ≤ 3.16 µM

* * *

Measured EC50 accompanies every entry in the list below.
- Experimental Target: human α7 nAChR (Homo sapiens)
- Construct: expressed in transfected cells; host or cells: GH4C1 (rat pituitary) cell line, stably transfected
- Experimental Details: cell-based calcium flux assay (FLIPR) for PAM activity, nicotine-evoked response
- Settings: GH4C1 cell line stably transfected with human α7 nAChR; potentiation of nicotine calcium flux; read-out: pEC50 Mean (converted)
Structures can show the parent of a compound that is named as a salt.

Example entries and their recorded answers appear below.
Quote EC50 reported for N#Cc1cc(NCc2cnc3[nH]c(C(F)(F)F)cc3c2)ncn1 [Example 3] please. ≤ 3.16 µM

Identify measured EC50 corresponding to [2H]C([2H])(Nc1cc(C(C)(C)F)ncn1)c1cnc2[nH]c(C(F)(F)F)cc2c1 [Example 15-d] ≤ 1 µM

Please supply the value of reported EC50 for the item CC(F)c1cc(NCc2cnc3[nH]c(C(F)(F)F)cc3c2)ncn1 (centres unmarked) [Example 9] ≤ 10 µM

Return reported EC50. Input compound: FC(F)(F)c1cc2cc(CNc3cc(C4CC4)ncn3)cnc2[nH]1 [Example 14] ≤ 10 µM

Output EC50 of CC(C)(F)c1cc(NCc2cnc3[nH]c(C(F)(F)F)cc3c2)ncn1 [Example 15] ≤ 1 µM

New cases:
Answer with the recorded EC50 of FC(F)(F)c1cc(NCc2ccc3[nH]c(C(F)(F)F)cc3c2)ncn1 [Example 12] only. ≤ 3.16 µM

Note EC50 for the compound shown: Cc1c(CF)ncnc1NCc1cnc2[nH]c(C(F)(F)F)cc2c1 [24 HCl] ≤ 10 µM

Give EC50 for FC(F)c1cc(NCc2cnc3[nH]c(C(F)(F)F)cc3c2)ncn1 [Example 10] ≤ 3.16 µM

Quickly give me recorded EC50 for Cc1c(NCc2cnc3[nH]c(C(F)(F)F)cc3c2)ncnc1C(C)F (centres unmarked) [20 HCl] ≤ 1 µM

Given the compound CCc1ncnc(NCc2cnc3[nH]c(C(F)(F)F)cc3c2)c1F [16 HCl] , write its reported EC50. ≤ 1 µM

Supply measured EC50 of FC(F)(F)c1cc2cc(CNc3cc(Cl)ncn3)ccc2[nH]1 [Example 13] in your reply. ≤ 10 µM
